Data credit: patent US20230331683A1

Biological target: mouse SPNS2 (Mus musculus (Mouse), UniProt Q91VM4)
Sequence (Q91VM4 whole entry): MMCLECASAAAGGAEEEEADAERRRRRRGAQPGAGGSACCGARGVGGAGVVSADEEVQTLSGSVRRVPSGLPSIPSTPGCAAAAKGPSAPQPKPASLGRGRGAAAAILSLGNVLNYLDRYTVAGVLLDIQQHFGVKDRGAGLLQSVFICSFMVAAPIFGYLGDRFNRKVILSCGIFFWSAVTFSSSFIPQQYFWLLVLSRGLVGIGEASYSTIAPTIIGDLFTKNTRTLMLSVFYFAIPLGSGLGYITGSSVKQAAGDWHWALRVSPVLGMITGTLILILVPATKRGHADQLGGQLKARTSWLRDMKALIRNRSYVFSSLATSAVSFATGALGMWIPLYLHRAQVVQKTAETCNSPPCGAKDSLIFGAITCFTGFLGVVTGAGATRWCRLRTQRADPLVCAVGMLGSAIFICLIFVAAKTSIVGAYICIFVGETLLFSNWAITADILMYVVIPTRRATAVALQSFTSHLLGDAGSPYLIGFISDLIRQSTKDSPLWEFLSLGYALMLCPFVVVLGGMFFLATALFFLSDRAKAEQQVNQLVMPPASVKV
Assay: S1P Transporter Assay (S1P release from whole cells expressing SPNS2)
Details: in vitro inhibition against SPNS2; HeLa cells expressing mouse SPNS2, S1P release into media after 18 hours; compounds as their pharmaceutical salts
Structures can show the parent of a compound that is named as a salt.
measured-parameter: IC50

CCCCCCCCCCc1ccc(C(=O)NCCCN)cc1 [Compound 26d, Hydrochloride]    ≤ 2000 nM
CCCCCCCCCCc1ccc(NC(=O)CCCNC)cc1 [Compound 2n, Hydrochloride]    > 2000 nM
CCCCCCCCCCc1ccc(C(=O)N2CCNCC2)cc1 [Compound 26c, Hydrochloride]    ≤ 2000 nM
CCCCCCCCCCc1ccc(NC(=O)[C@@H]2CCCNC2)cc1    > 2000 nM
CCCCCCCCCCc1ccc(NC(=O)C[C@@H]2CCNC2)cc1 [Compound 2i, Hydrochloride]    ≤ 2000 nM
